assay: In vitro protein binding in mouse serum (ultrafiltration); type: in vitro ADME; conditions: 37 °C, 30 min, indium-111 labeled material
Reported Protein Binding values for the following compounds.
Express the result in % but write the number alone.

Query block: Please give the measured Protein Binding for this compound: CC1(C)C(=CC=C2CCCC(C=CC3=[N+](CCCCCC(=O)NCCCCC(NC(=O)C(CCCCNC(=O)CCCc4ccc(I)cc4)NC(=O)CN4CCN(CC(=O)O)CCN(CC(=O)O)CCN(CC(=O)O)CC4)C(N)=O)c4ccc(S(=O)(=O)O)cc4C3(C)C)=C2Oc2ccc(S(=O)(=O)O)cc2)N(CCCCS(=O)(=O)O)c2ccc(S(=O)(=O)O)cc21 (stereo not shown)
Result block: 95

Query block: Same question for CC1(C)C(/C=C/C2=C(Oc3ccc(S(=O)(=O)O)cc3)C(=C/C=C3\N(CCCCS(=O)(=O)O)c4ccc(S(=O)(=O)O)cc4C3(C)C)/CCC2)=[N+](CCCCCC(=O)NCCCC[C@@H](NC(=O)CCCc2ccc(I)cc2)C(=O)NCc2ccc(CNC(=O)CN3CCN(CC(=O)O)CCN(CC(=O)O)CCN(CC(=O)O)CC3)cc2)c2ccc(S(=O)(=O)O)cc21 please.
Result block: 94

Query block: Same question for CC1(C)C(=CC=C2CCCC(C=CC3=[N+](CCCCCC(=O)NCCOCCOCCOCCOCCNC(=O)CN4CCN(CC(=O)O)CCN(CC(=O)O)CCN(CC(=O)O)CC4)c4ccc(S(=O)(=O)O)cc4C3(C)C)=C2Oc2ccc(S(=O)(=O)O)cc2)N(CCCCS(=O)(=O)O)c2ccc(S(=O)(=O)O)cc21 please.
Result block: 70

Moving on to the next compound.
Query block: Please give the measured Protein Binding for this compound: CC1(C)C(=CC=C2CCCC(C=CC3=[N+](CCCCCC(=O)NCCOCCOCCOCCOCCNC(=O)CN4CCN(CC(=O)[O-])CCN(CC(=O)[O-])CCN(CC(=O)[O-])CC4)c4ccc(S(=O)(=O)O)cc4C3(C)C)=C2Oc2ccc(S(=O)(=O)O)cc2)N(CCCCS(=O)(=O)O)c2ccc(S(=O)(=O)O)cc21.[111In+3] [[^111In]1, [^111In]In-DOTA-PEG4-IRDye800CW]
Result block: 70
